B1: CPEB3 Ribozyme (parent)
chain: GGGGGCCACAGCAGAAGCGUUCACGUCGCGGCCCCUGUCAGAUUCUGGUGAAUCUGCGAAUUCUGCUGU

- Variants of: B1
- Method: self-cleavage, relative activity (ratio to wild type); higher = more cleavage; co-transcriptional
Respond with yes for self-cleavage values of 0.6 and above, no for values below.

**Query** Does the reported self-cleavage for GGGGGCCACAGCAGAAGCGUUCACGUCGCGGCCCCUGUCAGAUUCUGGUGAAACUGCGCAUUCUGCUGU fall at or above the 0.6 mark?
**Result** no

**Query** Does the reported self-cleavage for GCGGGCCACCGCAGAAGCGUUCACGUCGCGGCCCCUGUCAGAUUCUGGUGAAUCUGCGAAUUCUGCUGU fall at or above the 0.6 mark?
**Result** no

**Query** Does the reported self-cleavage for GGGGACCACAGCAGAAGCGUUCACGUCGCGGCCCCUGUCAGACUCUGGUGAAUCUGCGAAUUCUGCUGU fall at or above the 0.6 mark?
**Result** yes

**Query** Does the reported self-cleavage for GGGGGCCACAGCAGAAGCGUUCAGGUCGCGGCCCCUGUCAGAUUCUGGUGAAACUGCGAAUUCUGCUGU fall at or above the 0.6 mark?
**Result** no

**Query** Does the reported self-cleavage for GGGGGCCACAGCAGAAGCGUUCACGUCGCGGCCCCUGUCAGAUACUGGUUAAUCUGCGAAUUCUGCUGU fall at or above the 0.6 mark?
**Result** yes

**Query** Does the reported self-cleavage for GGGGGCCACAACAGAAGCGUUCUCGUCGCGGCCCCUGUCAGAUUCUGGUGAAUCUGCGAAUUCUGCUGU fall at or above the 0.6 mark?
**Result** yes

**Query** Does the reported self-cleavage for GGGGGCCACAGCAGAAGCGUUGACGUUGCGGCCCCUGUCAGAUUCUGGUGAAUCUGCGAAUUCUGCUGU fall at or above the 0.6 mark?
**Result** no

**Query** Does the reported self-cleavage for GGGGGCCACAGAAGAAGCGUUCACGUCGCGGCCCCUGUCUGAUUCUGGUGAAUCUGCGAAUUCUGCUGU fall at or above the 0.6 mark?
**Result** no

**Query** Does the reported self-cleavage for GGGGGCCACAGCAGAAGCGUUCACGUCGCGGCCCCUGUCAGAUUCUGGUGUAUCUGGGAAUUCUGCUGU fall at or above the 0.6 mark?
**Result** no

**Query** Does the reported self-cleavage for GGGCGCCACAGCAGAAGCGUUCACGUUGCGGCCCCUGUCAGAUUCUGGUGAAUCUGCGAAUUCUGCUGU fall at or above the 0.6 mark?
**Result** no

**Query** Does the reported self-cleavage for GGGGGCCACAGCAGAAGCGUUCACGUCGCGGCCCCUGUCAGAUUCUGGUGAAUCUGCGAUUACUGCUGU fall at or above the 0.6 mark?
**Result** no

**Query** Does the reported self-cleavage for GGGGCCCACAGCAGAAGCGUUCACUUCGCGGCCCCUGUCAGAUUCUGGUGAAUCUGCGAAUUCUGCUGU fall at or above the 0.6 mark?
**Result** no

**Query** Does the reported self-cleavage for GGGGGACACAGCACAAGCGUUCACGUCGCGGCCCCUGUCAGAUUCUGGUGAAUCUGCGAAUUCUGCUGU fall at or above the 0.6 mark?
**Result** no

**Query** Does the reported self-cleavage for GGGGGCCACAGCAGAAGCGUUCAUGUGGCGGCCCCUGUCAGAUUCUGGUGAAUCUGCGAAUUCUGCUGU fall at or above the 0.6 mark?
**Result** no

**Query** Does the reported self-cleavage for GGGGGCCACAGCAGAACCGUUCAGGUCGCGGCCCCUGUCAGAUUCUGGUGAAUCUGCGAAUUCUGCUGU fall at or above the 0.6 mark?
**Result** no

**Query** Does the reported self-cleavage for GGGGGUCACAGCAGAACCGUUCACGUCGCGGCCCCUGUCAGAUUCUGGUGAAUCUGCGAAUUCUGCUGU fall at or above the 0.6 mark?
**Result** no

**Query** Does the reported self-cleavage for GGGGGCCACACCAGAAGCGUUCACGUCGCGGCCCCUGUCAGAUUCUGGUGAAUCUGCGAAUUCUGCUCU fall at or above the 0.6 mark?
**Result** yes

**Query** Does the reported self-cleavage for GGGGGCCACAGCAGAAGCGUUCACGUCGCGGCCCCUUUCAGAUUUUGGUGAAUCUGCGAAUUCUGCUGU fall at or above the 0.6 mark?
**Result** no

**Query** Does the reported self-cleavage for GGGGGCCACAGCAGAAGCGUUCACGUCGCGGCUCCUGUCAGAUUCUGGUGAAUCAGCGAAUUCUGCUGU fall at or above the 0.6 mark?
**Result** yes

**Query** Does the reported self-cleavage for GGGGGCGACAGCAGAAGCGUUCACGUCGCGGCCCCUGUAAGAUUCUGGUGAAUCUGCGAAUUCUGCUGU fall at or above the 0.6 mark?
**Result** no

**Query** Does the reported self-cleavage for AGGGGCCACAGCAGAAGCGUUCACGUCGCGGCCCCUGUCAGAUUCUGGUGAAUCUGCGAAUUCUCCUGU fall at or above the 0.6 mark?
**Result** no

**Query** Does the reported self-cleavage for GGGGGCCACAGCAUAAGCGUUCACGUCGCGGCCCCUGUCAGAUUCUGGUGAAACUGCGAAUUCUGCUGU fall at or above the 0.6 mark?
**Result** no

**Query** Does the reported self-cleavage for GGGGGCCACAGCAGAAGCGUUCACGUCGCGGCCCCUGUCAGAUUCUGGUUAAACUGCGAAUUCUGCUGU fall at or above the 0.6 mark?
**Result** yes

**Query** Does the reported self-cleavage for GGGGACCACAGCAGAAGCGUUCACGUCGCGGCCCCUGUCAGAUUCUGGUGAAUCUGCGAAUUCUACUGU fall at or above the 0.6 mark?
**Result** yes

**Query** Does the reported self-cleavage for GGGGGCCACAGCAGAAGCGUUCACGUCGCGGCCCCUGUCAGAUUCUGGUGAAUCUGAGAAUUCUGAUGU fall at or above the 0.6 mark?
**Result** no

**Query** Does the reported self-cleavage for GGGGGCCACAGCAGAAGCGUUAACGUCGCGGCCCCUGUCAUAUUCUGGUGAAUCUGCGAAUUCUGCUGU fall at or above the 0.6 mark?
**Result** no

**Query** Does the reported self-cleavage for GGGGGCCACAGCAGAAGCGUUCACGUCGCGGCCCCUGUCAAAUUCUGGUAAAUCUGCGAAUUCUGCUGU fall at or above the 0.6 mark?
**Result** yes

**Query** Does the reported self-cleavage for GGGGGCCGCAGCAGAAGCGUUCACGUCGCGGCCCCUGUCAGAUUCUGGUGAGUCUGCGAAUUCUGCUGU fall at or above the 0.6 mark?
**Result** yes

**Query** Does the reported self-cleavage for GGGGGCCACAACAGAAGCGUUCACGUCGGGGCCCCUGUCAGAUUCUGGUGAAUCUGCGAAUUCUGCUGU fall at or above the 0.6 mark?
**Result** no

**Query** Does the reported self-cleavage for GGCGGCCACAGCAGAAGCGUUCACGUCGCGGCCCCUGUCAGAUUCUGGUGAAUCUGCGAAGUCUGCUGU fall at or above the 0.6 mark?
**Result** no

**Query** Does the reported self-cleavage for GGGGGCCACAGCAGGAGCGUUCACGUCGCGGCCCCCGUCAGAUUCUGGUGAAUCUGCGAAUUCUGCUGU fall at or above the 0.6 mark?
**Result** yes

**Query** Does the reported self-cleavage for GGGGGCCACAGCAGAAGCGGUCACGUCGCGGCCCCUGUCAGAUUCUCGUGAAUCUGCGAAUUCUGCUGU fall at or above the 0.6 mark?
**Result** no

**Query** Does the reported self-cleavage for GGGGGCCACAGCAGAAGCGUUCACGUCGCGGCCCCUGUCAGAUUCUGGUGAAUCUACGAAUCCUGCUGU fall at or above the 0.6 mark?
**Result** yes

**Query** Does the reported self-cleavage for GGGGGCCACACCAGAAGCGUUCACGUCGCGGCCCCUGUCAGAUUCUGGUGGAUCUGCGAAUUCUGCUGU fall at or above the 0.6 mark?
**Result** yes

**Query** Does the reported self-cleavage for GGGGGCCACAGCAGAAGCAUUCACGUCGCGUCCCCUGUCAGAUUCUGGUGAAUCUGCGAAUUCUGCUGU fall at or above the 0.6 mark?
**Result** no

**Query** Does the reported self-cleavage for GGGGGCCACAGCAGAAGCGUUCACGUCGCGGCCCCUGUCAGAUUCUGGUGAAUCUGCGAAUUCUUCCGU fall at or above the 0.6 mark?
**Result** yes

**Query** Does the reported self-cleavage for GGGGGCCACAGCAGAAGCGUUCACGUCGCGGCCACUGUUAGAUUCUGGUGAAUCUGCGAAUUCUGCUGU fall at or above the 0.6 mark?
**Result** no

**Query** Does the reported self-cleavage for GGGGGCCACAGCCGAAGCGUUCACGUCGCGGCCCCUGUCAGAUUCUGGUGAAUCUGCGAAUUUUGCUGU fall at or above the 0.6 mark?
**Result** yes

**Query** Does the reported self-cleavage for GGGGGCCACAGCAGAAGCGUUCACGUCGCGGCCCGUGUCAGAUUCUGGUGUAUCUGCGAAUUCUGCUGU fall at or above the 0.6 mark?
**Result** no

**Query** Does the reported self-cleavage for GGGGGCCACUGCAGAAGCGUUCACUUCGCGGCCCCUGUCAGAUUCUGGUGAAUCUGCGAAUUCUGCUGU fall at or above the 0.6 mark?
**Result** no

**Query** Does the reported self-cleavage for GGGGGCCACAGCAGAAGCGUUCACGUCGCGCCCUCUGUCAGAUUCUGGUGAAUCUGCGAAUUCUGCUGU fall at or above the 0.6 mark?
**Result** no

**Query** Does the reported self-cleavage for GGGGGCCACAACAGAAGCGUUCACGUCGCGGCCCCUGUCAGAUUCUGGUGAAGCUGCGAAUUCUGCUGU fall at or above the 0.6 mark?
**Result** yes

**Query** Does the reported self-cleavage for GGGGGCCACAGCAGAAGCGUUCACGUCGCGGCCCCGGUCAGACUCUGGUGAAUCUGCGAAUUCUGCUGU fall at or above the 0.6 mark?
**Result** no

**Query** Does the reported self-cleavage for GGGGGCCACAGCAGAAGCGCUCACGUCGCGGCCCCUGUCAGAUUCUGGUGAAUCUGCGAAUUAUGCUGU fall at or above the 0.6 mark?
**Result** no
